Recorded values, source patent US6669925B1.

Provide the reported Ki of each item.
- study-system: σ1 receptors (Cavia porcellus, UniProt Q60492)
- Construct: from tissue; host or cells: guinea pig brain homogenate (per the earlier reading's assay description)
- Sequence (Q60492 whole entry): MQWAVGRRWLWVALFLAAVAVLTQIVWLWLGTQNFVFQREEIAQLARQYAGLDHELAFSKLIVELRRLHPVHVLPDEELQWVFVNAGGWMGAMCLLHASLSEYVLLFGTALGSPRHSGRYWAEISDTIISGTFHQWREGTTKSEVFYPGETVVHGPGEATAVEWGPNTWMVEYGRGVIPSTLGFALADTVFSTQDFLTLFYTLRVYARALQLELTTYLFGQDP
- run-description: In vitro binding to σ1 receptors: inhibition of [3H](+)-pentazocine binding to guinea pig brain homogenates

Look at each compound and report its Ki.
1. COc1ccc(C)cc1NC(=O)OC1CC2CCCC(C1)N2Cc1ccccc1 (centres unmarked) [—, reference compound]
2. COc1ccc(C)cc1NC(=O)OC1CC2CCCC(C1)N2CCCCCc1ccccc1 (centres unmarked) [Compound 6d]

Response line:
1. 92.5 nM
2. 17.3 nM

Go through the list and state Ki for each entry.
1. COc1ccc(C)cc1NC(=O)OC1CC2CCCC(C1)N2CCCc1ccccc1 (centres unmarked) [Compound 6b]
2. COc1ccc(C)cc1NC(=O)OC1CC2CCCC(C1)N2CCc1ccccc1 (centres unmarked) [Compound 6a]
3. COc1ccc(C)cc1NC(=O)OC1CC2CCCC(C1)N2CCCCc1ccccc1 (centres unmarked) [Compound 6c]

Response line:
1. 72.9 nM
2. 59.9 nM
3. 65.5 nM
